target: GDP-bound KRAS wild-type protein (Homo sapiens); assay: Binding to KRAS by surface plasmon resonance (SPR), dissociation constant KD; conditions: Single Cycle Kinetics, 1:1 binding model
Sequence (P01116 1-188 isoform P01116-2): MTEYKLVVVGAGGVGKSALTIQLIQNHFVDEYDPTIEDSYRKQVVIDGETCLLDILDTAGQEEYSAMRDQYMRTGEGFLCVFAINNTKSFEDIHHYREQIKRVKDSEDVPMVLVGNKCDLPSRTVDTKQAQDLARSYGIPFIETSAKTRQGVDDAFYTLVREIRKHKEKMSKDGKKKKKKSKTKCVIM
Where a SMILES comes first, the peptide text is derived from it. Bridges are numbered along the chain shown (N, C = ends). [ ]: non-standard residue; d: D form. hPhe(3-Cl-4-CF3) = N[C@@H](CCc1ccc(C(F)(F)F)c(Cl)c1)C(=O)O; NPrPhe(4-CF3) = CCCN[C@@H](Cc1ccc(C(F)(F)F)cc1)C(=O)O; NMeGly(cPent) = CN[C@H](C(=O)O)C1CCCC1; Pro(4,4-F2) = O=C(O)[C@@H]1CC(F)(F)CN1; NMeD = CN[C@@H](CC(=O)O)C(=O)O; NMeL = CN[C@@H](CC(C)C)C(=O)O; Aze = O=C(O)[C@@H]1CCN1; Ac4c = NC1(C(=O)O)CCC1; Sar = CNCC(=O)O
# key: entry, value: Kd
quantity-kind: Kd

CC[C@H](C)[C@@H]1NC(=O)[C@H](CC)N(C)C(=O)C[C@@H](C(=O)N(C)C)N(C)C(=O)[C@H](C2CCCC2)N(C)C(=O)C2(CCC2)NC(=O)[C@H](C)N(C)C(=O)[C@H](CCc2cc(F)c(C(F)(F)F)c(F)c2)NC(=O)CN(C)C(=O)[C@H](Cc2ccc(C(F)(F)F)cc2)N2CC/C=C\C[C@@H](C2=O)N(C)C(=O)CN(C)C1=O ... 0.32 nM
CCCN1C(=O)CN(C)C(=O)[C@@H]2CCN2C(=O)[C@H]([C@@H](C)CC)NC(=O)[C@H](CC(C)C)N(C)C(=O)C[C@@H](C(=O)N(C)C)N(C)C(=O)[C@H](C2CCCC2)N(C)C(=O)C2(CCC2)NC(=O)[C@@H]2CC(F)(F)CN2C(=O)[C@H](CCc2ccc(C(F)(F)F)c(Cl)c2)NC(=O)CN(C)C(=O)[C@@H]1Cc1ccc(C(F)(F)F)cc1 [PP0432] ([NMeL]I[Aze][Sar][NPrPhe(4-CF3)][Sar][hPhe(3-Cl-4-CF3)][Pro(4,4-F2)][Ac4c][NMeGly(cPent)][NMeD]-NMe2; lactam N-11) ... 0.17 nM

====

system: human lung cancer strain NCI-H441; format: cell-based
Label key: True means IC50 under 30 nM; False means IC50 of 30 nM or more.

CCC[C@H]1C(=O)N[C@@H](C2CCCC2)C(=O)N(C)CC(=O)N(C)[C@H]2C/C=C\CCN(C2=O)[C@@H](Cc2ccc(C(F)(F)F)cc2)C(=O)N(C)CC(=O)N[C@@H](CCc2ccc(C(F)(F)F)c(Cl)c2)C(=O)N2C[C@H](OCC)C[C@H]2C(=O)NC2(CC(C)(C)C2)C(=O)N(C)[C@@H](C2CCCC2)C(=O)N(C)[C@H](C(=O)N(C)C)CC(=O)N1C ... True
CCO[C@@H]1C[C@H]2C(=O)NC3(CCC3)C(=O)N(C)[C@@H](C3CCCC3)C(=O)N(C)[C@H](C(=O)N(C)C)CC(=O)N(C)[C@@H](CC)C(=O)N[C@@H]([C@@H](C)CC)C(=O)N(C)CC(=O)N(C)[C@H]3CCCCCN(C3=O)[C@@H](Cc3ccc(F)c(Cl)c3)C(=O)N(C)CC(=O)N[C@@H](CCc3cc(F)c(C(F)(F)F)c(F)c3)C(=O)N2C1 ... False
CCO[C@@H]1C[C@H]2C(=O)NC3(CC(C)(C)C3)C(=O)N(C)[C@@H](C3CCCC3)C(=O)N(C)[C@H](C(=O)N(C)CC)CC(=O)N(C)[C@@H]([C@@H](C)OC)C(=O)N[C@@H]([C@@H](C)CC)C(=O)N(C)CC(=O)N(C)[C@H]3C/C=C\CCN(C3=O)[C@@H](Cc3ccc(C)cc3)C(=O)N(C)CC(=O)N[C@@H](CCc3ccc(C(F)(F)F)c(Cl)c3)C(=O)N2C1 ... True
CC[C@H](C)[C@@H]1NC(=O)[C@H](CC(C)C)N(C)C(=O)C[C@@H](C(=O)N2CCOCC2)N(C)C(=O)[C@H](C2CCCC2)N(C)C(=O)C2(CCCC2)NC(=O)[C@@H]2CCCN2C(=O)[C@H](CCc2ccc(C(F)(F)F)c(Cl)c2)NC(=O)CN(C)C(=O)[C@H](Cc2ccc(OC(F)(F)F)cc2)N2CC=CC[C@@H](C2=O)N(C)C(=O)CN(C)C1=O ... False
CCCN(C)C(=O)[C@@H]1CC(=O)N(C)[C@@H](COC)C(=O)N[C@@H]([C@@H](C)CC)C(=O)N(C)CC(=O)N(C)[C@H]2C/C=C\CCN(C2=O)[C@@H](Cc2ccc(C(F)(F)F)cc2)C(=O)N(C)CC(=O)N[C@@H](CCc2cc(F)c(Cl)c(F)c2)C(=O)N2C[C@H](OCC)C[C@H]2C(=O)NC2(CC(C)(C)C2)C(=O)N(C)[C@@H](C2CCCC2)C(=O)N1C ... True

====

# Kd annotations
biological target: GDP-bound KRAS wild-type protein (Homo sapiens); test: Binding to KRAS by surface plasmon resonance (SPR), dissociation constant KD; details: 1:1 binding model
Where a SMILES comes first, the peptide text is derived from it. Bridges are numbered along the chain shown (N, C = ends). [ ]: non-standard residue; d: D form. The star is where a group is joined. hPhe(3-Cl-4-CF3) = N[C@@H](CCc1ccc(C(F)(F)F)c(Cl)c1)C(=O)O; NPrPhe(4-CF3) = CCCN[C@@H](Cc1ccc(C(F)(F)F)cc1)C(=O)O; NMeGly(cPent) = CN[C@H](C(=O)O)C1CCCC1; NMeD = CN[C@@H](CC(=O)O)C(=O)O; hPip = O=C(O)[C@@H]1CCCCCN1; Morpholide = C1CN(*)CCO1; Ac5c = NC1(C(=O)O)CCCC1; Aze = O=C(O)[C@@H]1CCN1; Sar = CNCC(=O)O
quantity-kind: Kd (nM)

CCO[C@@H]1C[C@H]2C(=O)NC3(CC(C)(C)C3)C(=O)N(C)[C@@H](C(CC)CC)C(=O)N(C)[C@H](C(=O)N(C)C)CC(=O)N(C)[C@H]3CC/C=C/c4ccc(cc4)C[C@@H](C(=O)N(C)CC(=O)N[C@@H](CCc4cc(F)c(C(F)(F)F)c(F)c4)C(=O)N2C1)N1CC/C=C\C[C@@H](C1=O)N(C)C(=O)CN(C)C(=O)[C@H]([C@@H](C)CC)NC3=O [PP2586] ... 0.17
CCC[C@H]1C(=O)N[C@@H](CC(C)C)C(=O)N(C2CC2)CC(=O)N(C)[C@H]2C/C=C\CCN(C2=O)[C@@H](Cc2ccc(C)cc2)C(=O)N(C)CC(=O)N[C@@H](CCc2ccc(C(F)(F)F)c(OC)c2)C(=O)N2C[C@H](OCC)C[C@H]2C(=O)NC2(CCC2)C(=O)N(C)[C@@H](C2CCCC2)C(=O)N(C)[C@H](C(=O)N(C)C)CC(=O)N1C [PP2534] ... 4.1
CCCN1C(=O)CN(C)C(=O)[C@@H]2CCN2C(=O)[C@H]([C@@H](C)CC)NC(=O)[C@@H]2CCCCCN2C(=O)C[C@@H](C(=O)N2CCOCC2)N(C)C(=O)[C@H](C2CCCC2)N(C)C(=O)C2(CCCC2)NC(=O)[C@@H]2CCCN2C(=O)[C@H](CCc2ccc(C(F)(F)F)c(Cl)c2)NC(=O)CN(C)C(=O)[C@@H]1Cc1ccc(C(F)(F)F)cc1 [PP0302] ([hPip]I[Aze][Sar][NPrPhe(4-CF3)][Sar][hPhe(3-Cl-4-CF3)]P[Ac5c][NMeGly(cPent)][NMeD]-Morpholide; lactam N-11) ... 1.6

====

target: GDP-bound KRAS wild-type protein (Homo sapiens); experiment: Binding to KRAS by surface plasmon resonance (SPR), dissociation constant KD; conditions: 1:1 binding model
pKd: −log10 of the molar value.
quantity-kind: pKd

CCO[C@@H]1C[C@H]2C(=O)NC3(CC(C)(C)C3)C(=O)N(C)[C@@H](C3CCCC3)C(=O)N(C)[C@H](C(=O)N(C)CC)CC(=O)N(C)[C@@H](CC(C)C)C(=O)N[C@@H]([C@@H](C)CC)C(=O)N(C)CC(=O)N(C)[C@H]3C/C=C\CCN(C3=O)[C@@H](Cc3ccc(C(F)F)cc3)C(=O)N(C)CC(=O)N[C@@H](CCc3cc(F)c(CC)c(OC)c3)C(=O)N2C1 [PP3143] ... 9.18
CCC(CC)[C@H]1C(=O)N(C)[C@H](C(=O)N(C)C)CC(=O)N(C)[C@@H](COC)C(=O)N[C@@H]([C@@H](C)CC)C(=O)N(C)CC(=O)N(C)[C@H]2C/C=C\CCN(C2=O)[C@@H](Cc2ccc(C)cc2)C(=O)N(C)CC(=O)N[C@@H](CCc2ccc(C(F)(F)F)c(Cl)c2)C(=O)N2CC3(CC3)C[C@H]2C(=O)NC2(CC(C)(C)C2)C(=O)N1C [PP2967] ... 9.39
CCO[C@@H]1C[C@H]2C(=O)NC3(CC(C)(C)C3)C(=O)N(C)[C@@H](C(CC)CC)C(=O)N(C)[C@H](C(=O)N(C)C)CC(=O)N(C)[C@@H](C(C)C)C(=O)N[C@@H]([C@@H](C)CC)C(=O)N(C)CC(=O)N(C)[C@H]3C/C=C\CCN(C3=O)[C@@H](CC3CCC(F)(F)CC3)C(=O)N(C)CC(=O)N[C@@H](CCc3ccc(C(F)(F)F)c(Cl)c3)C(=O)N2C1 [PP2492] ... 8.62
